- target-or-system: HLA-B*5401 (human)
- assay-details: competition with 125I probe peptide, purified HLA
readout: IC50 (nM)
Answer with a number only, understood to be in nM.

Quick one: give measured IC50 for FPMCKGSRCI (analog peptide) [Her2/neu.196.F1]
303

Determine from records and report IC50 for CPLHNQEVTI (analog peptide) [Her2/neu.315.I10]
556

Fill in IC50 for record FPHQALLHTI (analog peptide) [Her2/neu.488.F1I10]
4

Quickly give me recorded IC50 for FPSGVKPDI (analog peptide) [Her2/neu.600.F1I9]
44

Supply reported IC50 belonging to this binder: FPGGLRELQI (analog peptide) [Her2/neu.133.F1I10]
476

For the binder FPLNNTTPI (analog peptide) [Her2/neu.121.F1I9] , give its measured IC50 value.
1.6

Could you please provide reported IC50 for FPHQALLHTA (analog peptide) [Her2/neu.488.F1] ? Thanks!
1.3

Please report IC50 for the following binder: FPTNASLSI (analog peptide) [Her2/neu.65.F1I9]
2.8
